Value source: patent US20220112288A1

So I've got a bunch of binders here, and I need their koff values.
tested_system: T1, Recombinant human CD4 (R&D Systems, Cat. 10327-CD) (human, UniProt P01730 26-390, limits assumed)
T1 construct: Bought reagent; also called huCD4
test_protocol: BLI Octet, non-clonal supernatant on AMC sensor, 100 nM human CD4, 1:1 local fit;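 also: Single-concentration kinetics per supernatant, with the 1:1 model fitted across both the association and dissociation phases of the sensorgram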
Numbers only, in s⁻¹.

Here's what some known entries look like.
binder | unit_text | koff
75110_09N20A (antibody, V domains shown, Tested as non-clonal AlivaMab Mouse Kappa hybridoma supernatant, captured by anti-mouse IgG Fc sensor) VH: EVQLVESGGGLVQPGGSLRLSCAASGFTFSSYWMSWVRQAPGKGLEWVANINEDGSEKYYVDSVKGRFTISRDNAKNSLYLQMNSLRAEDTAVYYCVREGGQWLALDYWGQGTLVTVSS VL: DIQMTQSPSSVSASVGDRVTITCRASQGISSWLAWYQQKPGKAPKLLIYAASSLQSGVPSSFSGSGSGTDFTLTINSLQPEDFATYYCQQANSFPWTFGQGTKVAIK | s⁻¹ | 0.0019
75110_04B08A (antibody, V domains shown, Tested as non-clonal AlivaMab Mouse Kappa hybridoma supernatant, captured by anti-mouse IgG Fc sensor) VH: QVQLVESGGGVVQPGRSLRLSCTASGFNFINYGIHWVRQAPGKGLEWVTIIWYDGSKKYYADSVKGRFAISRDNSKNTLYLQMNSLRAEDTAVYYCAREDDWNDGLAYWGQGTLVTVSS VL: AIQMTQSPSSLSASVGDRVTITCRASQDIRNDLGWYQQKPGKAPNLLIYAASNLQSGVPSRFSGSGSGTDFTLTISSLQPEDFATYYCLQDSNYPRTFGQGTKVEIK | s⁻¹ | 0.0012
75110_06D16A (antibody, V domains shown, Tested as non-clonal AlivaMab Mouse Kappa hybridoma supernatant, captured by anti-mouse IgG Fc sensor) VH: QVQLQQWGAGLLKPSETLSLTCAVYGGSFSGYYWSWIRQPPGKGLEWIGEINHSGSTNYNPSLKSRVTISVVTSKNQFSLKLSSVTAADTAVYYCARVLNWFDPWGQGTLVTVSS VL: DIQMTQSPSSVSASVGDRVTITCRASQDIADWLAWYQQKPGKAPKLLIYAASSFQSGVPSRFSGSGSGTDFTLTISSLQPEDFATYFCQQANSFPYTFGQGTKLEIK | s⁻¹ | 0.00047

Below are some binders; for each one, tell me its koff.
1. 75110_14P05A (antibody, V domains shown, Tested as non-clonal AlivaMab Mouse Kappa hybridoma supernatant, captured by anti-mouse IgG Fc sensor) VH: EVQLVESGGGLVQPGGSLRLSCAASGFTFSSYDVHWVRQATGKGLEWVSTIGTAGDTYYPGSVKGRFTISRENAKNSLYLQMNSLRAGDTAVYYCARGGFYYYGMDVWGQGTTVTVSS VL: EIVLTQSPGTLSLSPGERATLSCRASQSVSSSYLAWYQQKPGQTPRLLIYGASSRATGIPDRFSGSGSGTDFTLTISRLEPEDFAVFYCQQSGSSPFTFGPGTKVDVK
2. 75110_12H17A (antibody, V domains shown, Tested as non-clonal AlivaMab Mouse Kappa hybridoma supernatant, captured by anti-mouse IgG Fc sensor) VH: EVQLVESGGGLVQPGGSLRLSCAASGFTFSDYWMSWVRQAPGKGLEWVANIKEDGNEKYYVDSVKGRFTISRDNAKNSLFLQMNSLRAEDTAVYYCAREGGQWLALDYWGQGALVTVSS VL: DIQMTQSPSSVSASVGDRVTITCRASQGISSWLAWYQQKPGKAPKFLISGASSLQSGVPSRFTGSGSGTDFTLTISSLQPEDFATYYCQQANSFPWTFGQGTKVEIK

Reply:
1: 0.00185; 2: 0.0032
